- procedure_summary: Solubility studies of compound I
- Assay type: physicochemical
- condition_context: DMI, 25 °C, organic solvent or mixture, DMI; determined at 25° C.; read-out: Solubility
measured_property: solubility (mg/mL)
Give a bare numeral; the unit mg/mL is implied.

What does the record list as solubility for C#CCOc1ccc(Nc2nc(Nc3ccc(C)c(S(N)(=O)=O)c3)ncc2F)cc1 ?
124

----------
- procedure_summary: Solubility studies of compound I
- Format: physicochemical
- condition_context: 95% THF-5% PEG400, organic solvent or mixture, 95% THF-5% PEG400; read-out: Solubility
- Protocol: The solubility of compound I free base in water is only 2 μg/mL. […] Accordingly, the free base was utilized for the formulation development of compound I.
measured_property: solubility (mg/mL)
Give a bare numeral; the unit mg/mL is implied.

What does the record list as solubility for C#CCOc1ccc(Nc2nc(Nc3ccc(C)c(S(N)(=O)=O)c3)ncc2F)cc1 ?
70

----------
- tested_target: Syk (Homo sapiens)
- Construct: endogenous in cells
- procedure_summary: Human cell based assay against Syk
- condition_context: human cell based assays, read-out: half maximal effective concentration (EC50)
pEC50: −log10 of the molar value.
measured_property: pEC50

What does the record list as pEC50 for C#CCOc1ccc(Nc2nc(Nc3ccc(C)c(S(N)(=O)=O)c3)ncc2F)cc1 ?
~6.85

----------
- Tested on: primary human T-cells
- procedure_summary: Primary human T-cell proliferation assay stimulated with IL-2
- Assay type: cell-based
- condition_context: IL-2, 72 hours, CellTiter-Glo
measured_property: IC50
Give the figure together with its unit, number first.

What does the record list as IC50 for C#CCOc1ccc(Nc2nc(Nc3ccc(C)c(S(N)(=O)=O)c3)ncc2F)cc1 [Compound I] ?
0.181 nM

----------
- procedure_summary: Solubility studies of compound I
- Format: physicochemical
- condition_context: PEG400, 25 °C, organic solvent or mixture, PEG400; determined at 25° C.; read-out: Solubility
measured_property: solubility

What does the record list as solubility for C#CCOc1ccc(Nc2nc(Nc3ccc(C)c(S(N)(=O)=O)c3)ncc2F)cc1 ?
> 200 mg/mL

----------
- procedure_summary: Solubility studies of compound I
- Format: physicochemical
- condition_context: 10% THF-90% PEG400, organic solvent or mixture, 10% THF-90% PEG400; read-out: Solubility
measured_property: solubility
Give the figure together with its unit, number first.

What does the record list as solubility for C#CCOc1ccc(Nc2nc(Nc3ccc(C)c(S(N)(=O)=O)c3)ncc2F)cc1 ?
129 mg/mL

----------
- procedure_summary: Solubility studies of compound I
- Format: physicochemical
- condition_context: 50% EtOH-50% PEG400, organic solvent or mixture, 50% EtOH-50% PEG400; read-out: Solubility
measured_property: solubility (mg/mL)
Give a bare numeral; the unit mg/mL is implied.

What does the record list as solubility for C#CCOc1ccc(Nc2nc(Nc3ccc(C)c(S(N)(=O)=O)c3)ncc2F)cc1 ?
136

----------
- procedure_summary: Solubility studies of compound I
- Assay type: physicochemical
- condition_context: propylene glycol monocaprylate (Capryol 90), oil or lipid, Propylene Glycol Monocaprylate (Capryol 90); read-out: Solubility
Structures can show the parent of a compound that is named as a salt.
measured_property: solubility (µg/mL)
Give a bare numeral; the unit µg/mL is implied.

What does the record list as solubility for C#CCOc1ccc(Nc2nc(Nc3ccc(C)c(S(N)(=O)=O)c3)ncc2F)cc1 [Compound I HCl] ?
70
